Target: T1, His-tagged human TFR1 (transferrin receptor 1) protein (human, UniProt P02786 89-760)
T1 construct: Bought protein; The order of the tag and the receptor part is not known; also called hTFR1-His; ACROBiosystems Cat #: CD1-H5243; not shown: His tag
T1 sequence (P02786 89-760 limits assumed): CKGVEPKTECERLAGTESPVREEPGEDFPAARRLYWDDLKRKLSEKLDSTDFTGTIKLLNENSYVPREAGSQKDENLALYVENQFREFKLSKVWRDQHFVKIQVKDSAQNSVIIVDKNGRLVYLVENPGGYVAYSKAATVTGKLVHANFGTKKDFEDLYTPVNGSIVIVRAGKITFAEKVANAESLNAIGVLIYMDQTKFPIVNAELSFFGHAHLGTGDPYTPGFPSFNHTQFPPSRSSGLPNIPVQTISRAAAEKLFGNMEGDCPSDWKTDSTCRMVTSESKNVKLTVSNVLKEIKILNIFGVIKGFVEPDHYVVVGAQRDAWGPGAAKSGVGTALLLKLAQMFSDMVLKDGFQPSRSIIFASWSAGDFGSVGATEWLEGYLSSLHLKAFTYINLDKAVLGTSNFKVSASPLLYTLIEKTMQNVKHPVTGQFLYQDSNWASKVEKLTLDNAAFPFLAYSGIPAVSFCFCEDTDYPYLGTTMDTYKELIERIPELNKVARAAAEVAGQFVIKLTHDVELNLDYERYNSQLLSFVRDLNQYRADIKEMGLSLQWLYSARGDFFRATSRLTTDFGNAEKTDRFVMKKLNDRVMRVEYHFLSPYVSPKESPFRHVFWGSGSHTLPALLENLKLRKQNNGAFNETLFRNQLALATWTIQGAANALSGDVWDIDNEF
Experiment: BLI (Octet) binning; hTFR1-His captured on HIS1K; ratio = binding of analyte 2 / binding of analyte 1; competitor (analyte 1, bound first): 24A1
Give measured binding ratio for each item. Keep answers brief.
Field format: numeric only.

// recorded binding ratio for 23B8 (antibody, V domains shown, Heavy-chain antibody without light chain; also called anti-TFR1 antibody 23B8) VH: QVTLKESGGGLVKPGGSLRLSCAASGFPFSNAWMNWVRQAPGKGLEWVGHIKSKTDGGTTDYAAPVKGRFTISRDDSKNMVFLQMNSLKTEDTAVYYCTTDRAYCGGDCSHYYYHDLDVWGQGTTVTVSS : 0.2

Form: binder = JR141-N (antibody, V domains shown, also called positive control; JR141 VH and VL on human IgG1 N297A) VH: EVQLVQSGAEVKKPGESLKISCKGSGYSFTNYWLGWVRQMPGKGLEWMGDIYPGGDYPTYSEKFKVQVTISADKSISTAYLQWSSLKASDTAMYYCARSGNYDEVAYWGQGTLVTVSS VL: DIVMTQTPLSLSVTPGQPASISCRSSQSLVHSNGNTYLHWYLQKPGQSPQLLIYKVSNRFSGVPDRFSGSGSGTDFTLKISRVEAEDVGVYYCSQSTHVPWTFGQGTKVEIK ; binding ratio = 0

Noted for 24A1 (antibody, human IgG1, V domains shown, Heavy-chain antibody without light chain; also called anti-TFR1 antibody 24A1) VH: EVQLVESGGGLVQPGGSLRLTCAASGFTFSSYAMSWVRQAPGKGLERVSEISGSGSSTNYADSVKGRFTISRDNSKNTLYLQMNSLRAEDTAVYYCAKDDSSGWAFNIWDQGTVVTVSS : its binding ratio reads 0.1

Sample 24C9 (antibody, human IgG1, V domains shown, Heavy-chain antibody without light chain; also called anti-TFR1 antibody 24C9) VH: EVQLVQSGGGVVQPGRSLRLSCAASGFTLSSYGMYWVRQAPGKGREWVAFIRFDESKKYYADSVKGRFTISRDNSKNTLYLQMNSLRAEDTAVYYCARDGEGGYCTNGVCHGLDVWGQGTTVTVSS ; binding ratio observed: 0.1

binding ratio recorded for this binder, 24G5 (antibody, human IgG1, V domains shown, Heavy-chain antibody without light chain; also called anti-TFR1 antibody 24G5) VH: QLQLQESGGGLVQPGGSLRLTCAASGFTFSSFAMSWVRQAPGKGLERVSEISDSGGNTYYADSVKGRFTISRDNSKNTLYLQMNSLRAEDTAVYYCAKDDSSGWAFNIWDQGTVVTVSS , is 0

src = patent US20260078197A1
